Target: T1, MORC4 ATPaseCW cassette (aa 29-486) (human, UniProt Q8TE76 29-486)
T1 chain: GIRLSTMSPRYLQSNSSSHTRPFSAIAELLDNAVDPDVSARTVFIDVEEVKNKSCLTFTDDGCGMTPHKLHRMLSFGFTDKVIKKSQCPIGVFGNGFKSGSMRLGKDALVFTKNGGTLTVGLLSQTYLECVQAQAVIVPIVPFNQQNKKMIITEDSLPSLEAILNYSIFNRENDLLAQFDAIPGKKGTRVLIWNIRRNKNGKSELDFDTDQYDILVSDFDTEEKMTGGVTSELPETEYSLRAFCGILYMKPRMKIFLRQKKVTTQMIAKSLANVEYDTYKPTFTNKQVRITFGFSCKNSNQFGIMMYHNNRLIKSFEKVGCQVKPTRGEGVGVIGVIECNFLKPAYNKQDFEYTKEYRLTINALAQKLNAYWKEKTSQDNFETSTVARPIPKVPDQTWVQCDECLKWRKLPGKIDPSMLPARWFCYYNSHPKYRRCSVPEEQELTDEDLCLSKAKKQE
reported_property: Kd (µM)
Give bare numbers, in µM.

Reported Kd of ARTKQTARKSTG [unmodified histone H3 peptide (aa 1-12 of H3)] : 12
